Cited source: paper PMC6253998

Tested on: Candida albicans ATCC 44859
Test: In vitro antifungal broth microdilution test
Assay type: cell-based
Conditions: Candida albicans, ATCC44859; 24h, RPMI 1640, pH 7.0, 35 °C; read-out: MIC/IC80 CA
measurement name: MIC

                                   molecule                  target_desc  value_measured
0  Cc1ccc2[nH]c(=O)cc(O)c2c1 [Compound 2, 4-Hydroxy-6-methylquinolin-2(1H)-one]  Candida albicans ATCC 44859        > 500 µM
1  OC(Cn1cncn1)(Cn1cncn1)c1ccc(F)cc1F [FLU, Fluconazole, reference compound]  Candida albicans ATCC 44859         0.06 µM
2  CCOC(=O)c1c(O)c2ccccc2[nH]c1=O [Compound 9]  Candida albicans ATCC 44859        > 500 µM
3  O=C(O)c1ccc2[nH]c(=O)c(/N=N/c3cc(Cl)c([N+](=O)[O-])cc3Cl)c(O)c2c1 [Compound 8]  Candida albicans ATCC 44859         31.2 µM
4  O=C(O)c1ccc(NC(=O)c2c(O)c3cc(C(=O)O)ccc3[nH]c2=O)cc1 [Compound 11]  Candida albicans ATCC 44859        > 500 µM
5  O=C(O)c1c(O)c2ccccc2[nH]c1=O [Compound 10]  Candida albicans ATCC 44859        > 500 µM
6  O=c1[nH]c2ccccc2c(O)c1[N+](=O)[O-] [Compound 5, 4-Hydroxy-3-nitroquinolin-2(1H)-one]  Candida albicans ATCC 44859        > 500 µM

====

System: Candida krusei ATCC 6258
Experiment: In vitro antifungal broth microdilution test
Assay type: cell-based
Conditions: Pichia kudriavzevii, ATCC6258; 48h, RPMI 1640, pH 7.0, 35 °C; read-out: MIC/IC80 CK
Recorded MIC values for a group of compounds are listed next.
measurement name: MIC

>>> df
                                   compound               target_desc  value_measured
0  O=C(O)c1ccc2[nH]c(=O)c(/N=N/c3cc(Cl)c([N+](=O)[O-])cc3Cl)c(O)c2c1 [Compound 8]  Candida krusei ATCC 6258          250 µM
1  CCOC(=O)c1c(O)c2ccccc2[nH]c1=O [Compound 9]  Candida krusei ATCC 6258        > 500 µM
2  Nc1c(O)c2ccccc2[nH]c1=O [Compound 6, 3-Amino-4-hydroxyquinolin-2(1H)-one]  Candida krusei ATCC 6258        > 500 µM
3  O=C(/C=C/c1ccccc1)Nc1c(O)c2ccccc2[nH]c1=O [Compound 7]  Candida krusei ATCC 6258        > 125 µM
4  O=C(O)c1c(O)c2ccccc2[nH]c1=O [Compound 10]  Candida krusei ATCC 6258        > 500 µM
5  O=C(O)c1ccc(NC(=O)c2c(O)c3cc(C(=O)O)ccc3[nH]c2=O)cc1 [Compound 11]  Candida krusei ATCC 6258        > 500 µM
